- Test system: NIH3T3
- PROCEDURE SUMMARY: Cytotoxicity against mouse NIH3T3 cells assessed as reduction in cell viability
- Assay type: functional, cell-based
ASSAY METRIC: IC50 (µM)
Give the value, in units of µM, as a plain number.

Q) Look up IC50: `CCN(CC)C(=S)SCc1ccc(B2OC(C)(C)C(C)(C)O2)cc1`
A) 6

----------
- Test system: PSN1
- PROCEDURE SUMMARY: Antiproliferative activity against human PSN1 cells assessed as reduction in cell viability measured for 72 hrs by CCK-8 assay
- Assay type: functional, cell-based
- TEST PARAMETERS: PSN1, 72 h
ASSAY METRIC: pIC50
Give only the number. pIC50 is defined as minus log10 of concentration in molar units.

Q) What value of measured pIC50 is listed for Nc1ccn([C@@H]2O[C@H](CO)[C@@H](O)C2(F)F)c(=O)n1 [GEMCITABINE] ?
A) 8.30

----------
- PROCEDURE SUMMARY: Cytotoxicity against human MRC5 cells assessed as reduction in cell viability by Almar Blue stained fluorescence-based assay
- Format: toxicity
ASSAY METRIC: pIC50
Lab note: report pIC50 as minus log10 of the concentration in molar units, number only.

Q) Request the reported pIC50 associated with `CC(=O)O[C@H]1C(=O)[C@@]2(C)[C@H]([C@H](OC(=O)c3ccccc3)[C@]3(O)C[C@H](OC(=O)[C@H](O)[C@@H](NC(=O)c4ccccc4)c4ccccc4)C(C)=C1C3(C)C)[C@]1(OC(C)=O)CO[C@@H]1C[C@@H]2O`
A) 4.60
